- protocol: NCI Yeast Anticancer Drug Screen. Data for the sgs1 mgt1 strain (AID 161);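 further: 0% = growth of cultures given vehicle only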
- study-conditions: S. cerevisiae sgs1 mgt1 strain, at 50.0 µM
This is part of a sample that, as a whole, favours compounds with a hit. Of some 79,000 tested, about 15% had one in any assay. Active and inactive are the calls of the source. No stated cut-off is given here; in the data, active means growth inhibition above about 70%; inactive means the rest.
Thanks in advance; please answer with one of these: active, inactive

Solved entries (count: 8):
compound	classification
CC(C)C(OC(=O)c1ccc(NCc2cc(O)ccc2O)cc1)C(C)C	active
Cc1c(Cl)nc(-c2ccccc2)nc1C(=O)CCl	active
CN(C)CCOc1ccc2c(c1)C(=O)/C(=C\c1ncc([N+](=O)[O-])n1C)C2	active
O=C(c1ccc([N+](=O)[O-])cc1)N1CCCSC1=S	inactive
CC(=Nc1ccc(N(C)C)cc1)c1ccccc1	inactive
NC1=CC(=O)c2ccccc2C1=O	active
CCN(CC)CCOC(=O)CCN1CC2CCC(CC2)C1	inactive
N#CC1C=C(Cl)c2ccc(Cl)cc2N1C(=O)c1ccccc1 (stereo unspecified)	active

Query: Please share the test call associated with CC(=O)c1c2c(cc3c1CC1(C3)Cc3ccc4c(c3C1=O)CCC4)CCC2 (stereo unspecified) .
Reply: inactive

Query: Check the results log: what was the call for C[C@]12CCC(=O)C=C1CC[C@@H]1[C@@H]2[C@@H](O)C[C@@]2(C)[C@H]1CC[C@]2(O)C(=O)COC(=O)C1CCCC1 ?
Reply: active

Query: What classification did O=C(Cc1ccc2c(c1)OCO2)c1ccc(O)cc1O end up with in this test?
Reply: active

###

- protocol: NCI Yeast Anticancer Drug Screen. Data for the rad50 strain (AID 155);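 further: 0% = growth of vehicle-only cultures of the same strain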
- study-conditions: S. cerevisiae rad50 strain growth inhibition; at 5.0 µM (retest, dose inferred, filed as 0.5); hits give high values
Compounds without any hit were thinned out: in the full panel of roughly 79,000, 15% have a hit.
experimental-readout: growth inhibition (%)
Answers are plain numbers, in %.

compound	growth inhibition, %
N#CCCN(CCCN1CCOCC1)C(=S)Nc1cccc(C(F)(F)F)c1	34
Nc1ccc(S(=O)(=O)Nc2nc3ccccc3nc2N2CCCCCC2)cc1	30
Cc1ccccc1[P+](C)(c1ccccc1C)c1ccccc1C	56

Please give growth inhibition, item by item, for the list that follows.
1. CCOC(=O)CC(NC(=O)c1[nH]cnc1/N=N/N(C)C)C(=O)OCC (stereo unspecified)
2. CC(C)c1ccc(C(=O)OC2CCCCC2)cc1
3. [Cl][Pt+2]([Cl])([Cl])[Cl].[NH-]CC1(C[NH-])CCCC1
4. CCCCCCC(=O)CC(SCCN)c1ccccc1Cl (stereo unspecified)
5. O=C(O)CCSSCCCCCS(=O)O
6. CCCCCCCCCCCCCCCCCCn1[se]c2ccccc2c1=O
7. O=C(/C=C/c1cccc(Cl)c1)c1ccccc1

Reply:
[-24, 7, 86, 9, -5, 7, 16]

Parameters: items (list). Returns: growth inhibition for each item.
1. CC(=O)Oc1cc2c(cc1OC(C)=O)OCC(c1ccc(C)cc1)C2 (stereo unspecified)
2. COc1cccc(N2C(=O)C3CC(CC(C)(C)C)c4c([nH]c5ccccc45)C3C2=O)c1 (stereo unspecified)
3. COC(=O)c1[nH]c(=O)c(C#N)c(C(=O)OC)c1C(=O)c1ccc(Cl)c(Cl)c1
4. CCOC(=O)N1CCN(c2cc(C)nc3cc(OC)ccc23)CC1
5. O=C1NC(c2cccc3ccccc23)Nc2ccc(Cl)cc21 (stereo unspecified)
6. C1=C(c2ccccc2)C(c2ccc(OCCN3CCCCC3)cc2)Oc2ccccc21 (stereo unspecified)
7. CCCCCCCCCN(CCCCCCCCC)CC(O)c1cc2c(c3ccccc13)CCCC2 (stereo unspecified)
8. CCCCc1ccc2nc(C)cc(N/N=C/c3ccc4c(c3)OCO4)c2c1

Reply:
1. 8
2. 10
3. -19
4. 4
5. 18
6. 39
7. 9
8. 9

Return reported growth inhibition values for all items listed beneath this line.
1. COc1ccc2c(c1)CCc1c-2ccc(C)c1CCC(=O)O
2. Clc1ccc(CN2CCCN(Cc3ccc(Cl)cc3)C2C2CCC=CO2)cc1 (stereo unspecified)
3. O=C1C(c2c[nH]c3ccc(Br)cc23)=Nc2ccc(Br)cc21
4. COc1ccc(/C=C(\C#N)c2ccccc2)cc1OC

Reply:
1. 5
2. 4
3. -1
4. 0

// batch mode: one growth inhibition value per listed entry
1. CNc1ccc2c(c1)c1ccccc1n2C
2. N#CSCc1ccc(Cl)c(CSC#N)c1
3. N#CC(C#N)=C1CCC(CC2CCCCC2)CC1 (stereo unspecified)

Reply:
1: 11; 2: 18; 3: -117

###

- protocol: NCI Yeast Anticancer Drug Screen. Data for the rad50 strain (AID 155);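 further: 0% = growth of vehicle-only cultures of the same strain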
- study-conditions: S. cerevisiae rad50 strain growth inhibition; at 50.0 µM (retest, dose inferred, filed as 5.0); hits give high values
Compounds without any hit were thinned out: in the full panel of roughly 79,000, 15% have a hit.
Exercise: state measured growth inhibition for each of the molecules provided.
Numbers only, in %.

molecule	growth inhibition (%)
CC(C)CC(CC(C)C)OP(=O)(O)OC(CC(C)C)CC(C)C	76
O=C1C(c2ccccc2)=[N+]([O-])c2ccccc21	39
CNC(=O)OC(C)CN1c2ccccc2Sc2ccccc21 (stereo not given)	97
CCCCCCN(CCCCCC)CC(O)c1cc(-c2ccccc2)nc2c(O)cccc12 (stereo not given)	56

Could you tell me growth inhibition for each of these molecules? They are listed below.
1. COc1ccc(C(=O)Oc2c(Br)cc(Br)cc2Br)cc1
2. COc1cccc(C2c3cc4c(cc3OC(NNS(=O)(=O)c3ccc(C)cc3)C2C)OCO4)c1O (stereo not given)
3. Nc1nc2nn(-c3ccc(C(=O)O)cc3)nc2c(=O)[nH]1
4. Cc1cc(N(CCOS(C)(=O)=O)CCOS(C)(=O)=O)ccc1C=Nc1ccc(-c2csc(-c3ccc(Cl)cc3)n2)cc1
5. CCNCCNc1cc(O)c2c(c1O)C(=O)c1ccccc1C2=O
6. Nc1c(-c2c(Cl)cccc2Cl)[n+]([O-])c2ccccc2[n+]1[O-]

Reply:
1. -3
2. 94
3. 9
4. 93
5. 98
6. 99

###

- protocol: NCI Yeast Anticancer Drug Screen. Data for the mlh1 rad18 strain (AID 175)
- study-conditions: S. cerevisiae mlh1 rad18 strain growth inhibition; at 5.0 µM (retest, dose inferred, filed as 0.5)
The panel holds about 79,000 compounds, 15% with a hit somewhere; the sample as a whole holds those more often. The source made the active and inactive calls. Rule as the data show it: active = growth inhibition above about 70%; inactive = the rest.
Use one of these outcomes when replying: 1 = active, 0 = inactive

// below: answered molecules
molecule	classification
O=C1c2ccccc2C(O)(C#Cc2ccccc2)c2cnccc21 (stereo unspecified)	0
CN(C)C1CCC(N=Nc2cc([N+](=O)[O-])ccc2C(=O)O)CC1 (stereo unspecified)	0
O=c1c(S(=O)(=O)Oc2ccccc2)coc2cc(F)ccc12	1
OC[P+](CO)(CO)C12CC3CC(CC(C3)C1)C2	0
C=C1CC(C)(COc2ccc3c(C)c(C)c(=O)oc3c2C)OC1=O (stereo unspecified)	0
O=C1c2ccc3ccccc3c2CN2C(=O)CCC12 (stereo unspecified)	0
OCCCNc1nc2ccc(Cl)cc2c2ccccc12	0
CCCCc1ccc2nc(C)cc(N/N=C/c3ccc4c(c3)OCO4)c2c1	0
O=C1C(c2c[nH]c3ccc(Br)cc23)=Nc2ccc(Br)cc21	0
O=c1cc(-c2ccccc2)[nH]c2ccc(N3CCCC3)cc12	0

Query: Recorded test outcome, item Cc1cc(Cl)c(O)c(-c2cc(-c3cccc([N+](=O)[O-])c3)c3c(N)[nH]c(=S)nc3n2)c1
Reply: 0

###

- protocol: NCI Yeast Anticancer Drug Screen. Data for the bub3 strain (AID 167)
- study-conditions: S. cerevisiae bub3 mutant strain, at 50.0 µM (retest, dose inferred, filed as 5.0)
Compounds without any hit were thinned out: in the full panel of roughly 79,000, 15% have a hit. Active and inactive are the calls of the source. No stated cut-off is given here; in the data, active means growth inhibition above about 70%; inactive means the rest.
The reply should be one of these categories: active, inactive

molecule	classification
C[Si](C)(c1ccccc1)C1CC(=O)CC(=O)C1	inactive
Cc1cc2cc3c(c(C(=O)O)c2o1)C(=O)c1ccc2ccccc2c1C3	active
Cc1cc2nc(CC(=O)c3ccncc3)c(CC(=O)c3ccncc3)nc2cc1C	active
CC(=O)OC1C(C)OC(OC(=O)C2CCC3C(C2)OC2(CC(OC(=O)/C=C/c4ccccc4)C(C)CO2)C32CO2)C(OC2OC(C)C(O)C(OC(C)=O)C2O)C1O (stereo not given)	active

Shift focus to the following entry.
Query: Outcome logged for O=C([O-])c1ccc([I+]c2ccccc2)cc1 in this assay:
Reply: active

###

- protocol: NCI Yeast Anticancer Drug Screen. Data for the cln2 rad14 strain (AID 165);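 further: 0% = growth equal to vehicle treated cultures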
- study-conditions: S. cerevisiae cln2 rad14 strain, at 50.0 µM
About 79,000 compounds went through this panel and 15% of them were active in at least one assay; those are over-represented in the sample as a whole. Activity calls are given as the source filed them. Cut-off read from the data, not from the text of the source: active = growth inhibition above about 70%; inactive = the rest.
Valid outcomes are listed here; reply with one: active, inactive

Some entries whose results are on file:
compound	classification
CNc1ccc2c(c1)c1ccccc1n2C	inactive
CCNc1ccc2c(c1)Cc1ccccc1-2	active
CC(=O)[O-].CC(=O)[O-].CC(=O)[O-].CC(=O)[O-].Cn1c(=O)c2[nH]cnc2n(C)c1=O.Cn1c(=O)c2[nH]cnc2n(C)c1=O.[Rh+2].[Rh+2]	inactive
NC(=O)/C(=N\NC(=O)c1cc2ccccc2cc1O)C1C(=O)N(c2ccccc2)N=C1N (configuration not stated)	inactive
Cc1c(S(C)=O)[n+](=O)c2ccccc2n1[O-] (configuration not stated)	inactive

Query: Called result for CCCCCCCCCCCCCCSC(=NC)NC
Reply: active

Query: Please share the test call associated with COC1(OC)OC2=C(OC1(OC)OC)c1ccccc1C2=O .
Reply: inactive

Query: Given Cn1cnc([N+](=O)[O-])c1Sc1nc2cccnc2s1 , state the outcome it received in this test.
Reply: inactive

Query: Hi, do you know how CCOc1ccc2c(c1)[n+]([O-])c(-c1ccc(Cl)cc1)c(N)[n+]2[O-] came out in this test?
Reply: active

Query: Assay result, entry S=C(N/N=C/c1ccccn1)Nc1ccccn1 — outcome?
Reply: active

Query: # outcome recorded in this test, key = O=S(=O)(O)N=Nc1ccc(O)cc1
Reply: active

Query: Each compound tested received a call. Report the one for Cc1c[n+](=O)c2ccccc2n1[O-] .
Reply: active

Query: # outcome recorded in this test, key = COC1C=COC2(C)Oc3c(C)c(O)c4c(O)c(c(C5SCCS5)c(O)c4c3C2=O)NC(=O)/C(C)=C\C=CC(C)C(O)C(C)C(O)C(C)C(OC(C)=O)C1C (configuration not stated)
Reply: active

Query: Which outcome did this test record for the compound Cc1cc(Cl)c(O)c(-c2cc(-c3cccc([N+](=O)[O-])c3)c3c(N)[nH]c(=S)nc3n2)c1 ?
Reply: inactive

Query: In this assay, the call recorded for Brc1ccc(C2SCc3nc4ccccc4n32)cc1 (configuration not stated) was what?
Reply: inactive

Query: Short answer needed: outcome of this test for CC(C)(C)N/N=C(\C(=O)NC1=C(Cl)C(=O)c2ccccc2C1=O)C1C=CCS1(=O)=O (configuration not stated) ?
Reply: inactive
